# Test system: PC-14
# Experiment: relative viability (nuclei count vs DMSO), 5 days (fraction); higher = more cells survive
# Test parameters: first compound 0.253 µM
hey, just use MET if measured relative viability is less than 0.8, otherwise NOT MET

Compound	Group
Cc1cnc(-c2cnc(NCCNc3ccc(C#N)cn3)nc2-c2ccc(Cl)cc2Cl)[nH]1 + CC1(C)CCC(c2ccc(Cl)cc2)=C(CN2CCN(c3ccc(C(=O)NS(=O)(=O)c4ccc(N[C@H](CCN5CCOCC5)CSc5ccccc5)c(S(=O)(=O)C(F)(F)F)c4)cc3)CC2)C1 [Navitoclax] (partner 0.5 µM)	NOT MET
O=c1[nH]c2ccccc2n1C1CCN(CCCC(c2ccc(F)cc2)c2ccc(F)cc2)CC1 [Pimozide] + Cc1nc(NC(=O)N2CCC[C@H]2C(N)=O)sc1-c1ccnc(C(C)(C)C(F)(F)F)c1 [Alpelisib] (partner 2 µM)	NOT MET
O=c1[nH]c2ccccc2n1C1CCN(CCCC(c2ccc(F)cc2)c2ccc(F)cc2)CC1 [Pimozide] + CS(=O)(=O)CCNCc1ccc(-c2ccc3ncnc(Nc4ccc(OCc5cccc(F)c5)c(Cl)c4)c3c2)o1 [Lapatinib] (partner 2 µM)	MET
Cc1cnc(-c2cnc(NCCNc3ccc(C#N)cn3)nc2-c2ccc(Cl)cc2Cl)[nH]1 + Cc1cc(Nc2cc(N3CCN(C)CC3)nc(Sc3ccc(NC(=O)C4CC4)cc3)n2)n[nH]1 [Tozasertib] (partner 0.1 µM)	MET
O=c1[nH]c2ccccc2n1C1CCN(CCCC(c2ccc(F)cc2)c2ccc(F)cc2)CC1 [Pimozide] + O=C(CCCCCCC(=O)Nc1ccccc1)NO [Vorinostat] (partner 1 µM)	MET
Cc1cnc(-c2cnc(NCCNc3ccc(C#N)cn3)nc2-c2ccc(Cl)cc2Cl)[nH]1 + CC(=O)c1c(C)c2cnc(Nc3ccc(N4CCNCC4)cn3)nc2n(C2CCCC2)c1=O [Palbociclib] (partner 0.5 µM)	MET
Cc1cnc(-c2cnc(NCCNc3ccc(C#N)cn3)nc2-c2ccc(Cl)cc2Cl)[nH]1 + Cc1nc(NC(=O)N2CCC[C@H]2C(N)=O)sc1-c1ccnc(C(C)(C)C(F)(F)F)c1 [Alpelisib] (partner 2 µM)	NOT MET
